# Test system: Human primary T cells
# TEST SUMMARY: IL-2 ELISA, Human Primary T Cell, Anti-CD3+CD28+ (Example 3)
# Assay type: cell-based
# DETAILS: Homo sapiens, T-cell, 24 h, anti-CD3+CD28 stimulation
pIC50: −log10 of the molar value.
MEASURED METRIC: pIC50

C#Cc1cnc(Nc2cc(OC)cc(OC)c2)nc1NC1CC(C)(C)N(C)C(C)(C)C1 [Compound I-433]	5.63
CN1C(C)(C)CC(Nc2nc(Nc3nc(-c4ccc(C(F)(F)F)cc4)cs3)ncc2F)CC1(C)C [II-140]	6.23

I = COC(=O)CCN1C(C)(C)CC(Nc2nc(Nc3ccc(OC)c(OC)c3)ncc2F)CC1(C)C [Compound I-291]
II = COc1cc(Nc2ncc(OC)c(NC3CC(C)(C)N(C)C(C)(C)C3)n2)cc(-n2nnnc2C)c1 [Compound I-424]
Ask | // task: argmin of pIC50 over [ I , II ] Identify your pick by its label.
Reply | I

* * *

# Test system: Human primary T cells
# TEST SUMMARY: IL-2 ELISA, Human Primary T Cell, Anti-CD3+CD28+ (Example 3)
# Type: cell-based
# DETAILS: Homo sapiens, T-cell, 24 h, anti-CD3+CD28 stimulation
MEASURED METRIC: IC50 (nM)

CCCN1C(=O)C(C)(C)Oc2cc(Nc3ncc(F)c(NC4CC(C)(C)N(C)C(C)(C)C4)n3)ccc21 [II-48]	263
CN1C(C)(C)CC(Nc2nc(Nc3ccc4c(c3)OCC(=O)N4CCF)ncc2F)CC1(C)C [II-82]	291
CCn1c(=O)oc2ccc(Nc3ncc(F)c(NC4CC(C)(C)N(C)C(C)(C)C4)n3)cc21 [II-173]	1320

A = CN1C(C)(C)CC(Nc2nc(Nc3ccc(-c4cnn(C)c4)c(C(F)(F)F)c3)ncc2F)CC1(C)C [Compound I-126]
B = CN1C(C)(C)CC(Nc2nc(Nc3ccc(N4CCCC4)c(C(F)(F)F)c3)ncc2F)CC1(C)C [Compound I-232]
C = CCN(CC)C1CCC(Nc2nc(Nc3ccc(N4CCN(S(C)(=O)=O)CC4)c(C(F)(F)F)c3)ncc2F)CC1 (stereo not shown) [IV-9]
D = COc1cc(Nc2ncc(F)c(NC3CC(C)(C)N(C)C(C)(C)C3)n2)cc(OCCN2CCOCC2)c1 [Compound I-431]
Ask | List from greatest to least IC50. Would you mind listing the labels in the order requested?
Reply | C, B, D, A

* * *

# Tested on: Human primary T cells
# TEST SUMMARY: IL-2 ELISA, Human Primary T Cell, Anti-CD3+CD28+ (Example 3)
# Assay type: cell-based
# DETAILS: Homo sapiens, T-cell, 24 h, anti-CD3+CD28 stimulation
MEASURED METRIC: IC50 (nM)

Study these solved cases before continuing.
COc1cc(O)cc(Nc2ncc(F)c(NC3CC(C)(C)N(C)C(C)(C)C3)n2)c1 [Compound I-436]	600
CCCN1CCN(c2ccc(Nc3ncc(F)c(NC4CC(C)(C)N(C)C(C)(C)C4)n3)cc2C(F)(F)F)CC1 [Compound I-247]	131
COc1cc(Nc2ncc(F)c(N(Cc3ccccc3)C3CC(C)(C)N(C)C(C)(C)C3)n2)cc(OC)c1 [Compound I-308]	809
CN1CCN(c2ccc(Nc3ncc(F)c(NC4CC(C)(C)N(C)C(C)(C)C4)n3)cc2)CC1 [Compound I-1]	3020
Cc1cc(Nc2ncc(F)c(NC3CC(C)(C)N(C)C(C)(C)C3)n2)cnc1N1CCN(C)CC1 [Compound I-7]	530

I = CN1C(C)(C)CC(Nc2nc(Nc3ccc(-c4cccnc4)c(Cl)c3)ncc2F)CC1(C)C [Compound I-154]
II = Cc1ccc(Nc2ncc(F)c(NC3CC(C)(C)N(C)C(C)(C)C3)n2)cc1C#N [Compound I-142]
Ask | I or II : whose IC50 is greater? Identify your pick by its label.
Reply | I
